Catalogue of melting point values
attribute.measured: melting point

>>> val("Clc1ccc(Cn2cc(CSc3nnc(COc4cccc5cccnc45)o3)nn2)cc1 [12d]")
"92 to 96 °C"
>>> val("O=[N+]([O-])c1ccc(-n2cc(CSc3nnc(COc4cccc5cccnc45)o3)nn2)cc1 [12o]")
"150 to 156 °C"
>>> val("Fc1ccc(CSc2nnc(COc3cccc4cccnc34)o2)cc1")
"106.9 to 109.4 °C"
>>> val("O=[N+]([O-])c1ccc(Cn2cc(CSc3nnc(COc4cccc5cccnc45)o3)nn2)cc1 [12g]")
"100 to 106 °C"
>>> val("Fc1ccc(-n2cc(CSc3nnc(COc4cccc5cccnc45)o3)nn2)cc1 [12m]")
"134 to 140 °C"
>>> val("c1ccc(Cn2cc(CSc3nnc(COc4cccc5cccnc45)o3)nn2)cc1 [12c]")
"68 to 71 °C"
>>> val("Clc1cccc(Cl)c1-n1cc(CSc2nnc(COc3cccc4cccnc34)o2)nn1 [12s]")
"113 to 118 °C"
>>> val("Fc1ccc(CSc2nnc(COc3cccc4cccnc34)o2)c(F)c1")
"98.7 to 105.2 °C"
>>> val("Fc1ccc(CSc2nnc(COc3cccc4cccnc34)o2)cc1F")
"98.8 to 101.2 °C"
>>> val("Brc1ccc(-n2cc(CSc3nnc(COc4cccc5cccnc45)o3)nn2)cc1 [12n]")
"126 to 132 °C"
>>> val("CCCCCSc1nnc(COc2cccc3cccnc23)o1")
"84.6 to 90.1 °C"
>>> val("CCCCSc1nnc(COc2cccc3cccnc23)o1")
"88.3 to 93.5 °C"
>>> val("Clc1ccc(CSc2nnc(COc3cccc4cccnc34)o2)c(Cl)c1")
"116.7 to 119.7 °C"
>>> val("Clc1ccc(-n2cc(CSc3nnc(COc4cccc5cccnc45)o3)nn2)cc1 [12l]")
"132 to 136 °C"
>>> val("Brc1ccc(CSc2nnc(COc3cccc4cccnc34)o2)cc1")
"120.9 to 124.1 °C"
>>> val("c1ccc(CSc2nnc(COc3cccc4cccnc34)o2)cc1")
"75.3 to 79.8 °C"
>>> val("Cc1cccc(C)c1-n1cc(CSc2nnc(COc3cccc4cccnc34)o2)nn1 [12t]")
"110 to 116 °C"
>>> val("CCSc1nnc(COc2cccc3cccnc23)o1")
"80.7 to 83.1 °C"
>>> val("Clc1ccc(CSc2nnc(COc3cccc4cccnc34)o2)cc1")
"101.4 to 104.2 °C"
>>> val("COc1ccc(-n2cc(CSc3nnc(COc4cccc5cccnc45)o3)nn2)cc1 [12q]")
"122 to 128 °C"
>>> val("Brc1ccc(Cn2cc(CSc3nnc(COc4cccc5cccnc45)o3)nn2)cc1 [12f]")
"78 to 82 °C"

---

Assay: Nitric oxide (NO) scavenging activity
Conditions: nitric oxide radical scavenging, 37 °C, 2 h
pIC50: −log10 of the molar value.
attribute.measured: pIC50

>>> val("Clc1ccc(Cn2cc(CSc3nnc(COc4cccc5cccnc45)o3)nn2)c(Cl)c1 [12i]")
"< 3.30"
>>> val("O=C(O)c1cc(O)c(O)c(O)c1 [Gallic acid, reference compound]")
3.14
>>> val("Cc1ccc(-n2cc(CSc3nnc(COc4cccc5cccnc45)o3)nn2)cc1 [12p]")
"< 3.30"
>>> val("Fc1cccc(CSc2nnc(COc3cccc4cccnc34)o2)c1 [4o]")
"< 3.30"
>>> val("Fc1ccc(CSc2nnc(COc3cccc4cccnc34)o2)c(F)c1 [4r]")
"< 3.30"

Origin of the recorded values: paper PMC9414972
